# System: MCF-10A
# experiment-notes: normalised response (% of control), CellTox Green; higher = less cell death (100 = DMSO, 0 = benzethonium chloride kill control)
# stated-conditions: incubation time: 72 h
Reported normalised response values follow for various compounds

compound: CN(C)C(=N)NC(=N)N [Metformin] (10000 nM)
target-entity: MCF-10A
units-label: %
normalised response: 103

compound: CC[C@H](CO)Nc1nc(NCc2ccccc2)c2ncn(C(C)C)c2n1 [Seliciclib] (10000 nM)
target-entity: MCF-10A
units-label: %
normalised response: 108

compound: CCN(CC)CCCC(C)Nc1ccnc2cc(Cl)ccc12 (centres undefined) [Chloroquine] (1000 nM)
target-entity: MCF-10A
units-label: %
normalised response: 86.3

compound: C/C(=C\c1csc(C)n1)[C@@H]1C[C@@H]2O[C@]2(C)CCC[C@H](C)[C@H](O)[C@@H](C)C(=O)C(C)(C)[C@@H](O)CC(=O)N1 [Ixabepilone] (100 nM)
target-entity: MCF-10A
units-label: %
normalised response: 87.7
